Recorded protease stability score, one value per entry.
# TEST DETAILS: protease stability score; higher = more stable; yeast display proteolysis, trypsin and chymotrypsin;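 also: relative to predicted unfolded state with 0 unfolded-like and 1 meaning tenfold more protease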
MEASURE NAME: protease stability score

[[record]]
chain_sequence = "DDLDRYAEEAEKRHYENLETGDENRLQENADPHTRMDFNGRKFHGMDHNYHWMRKIREDLGVDNIRIHIHHMSVVDGVLHLDLIIRYGDKELRLHFVSEKINGRWRLKEVYYK"
value_observed = 0.855

[[record]]
chain_sequence = "SEEHRDIEIARHIWVDMLRTGDERKSKELADPHVQIHFENRIYHGREEWERMIHELIHTLGADHIEIRIHSIEVQGDKILVHFHIEFQVNGKYLRYDSRSVFIKINGQWHLRSVYII"
value_observed = 1.25

[[record]]
chain_sequence = "SEDEKTWHKLMEDHIKDWITGNEEKLEENADPHARFELHVGDKRITDHGRDFIEHWVDRIKNLRIELHDFEIQGNKVHLDVRVNVNGVHEIVTIIVIVIDGKLHSLHIHVEIR"
value_observed = -0.08

[[record]]
chain_sequence = "DEQERHAEEFVREHMNAWVTGDWEMLIRQLDPNTRFIQGDKRHHGREALHYMRERVDHIKSVHIDRVDVYNGRVIIDIELIGLIDGRDVTFHVHIITKKIDGRWIVHELRHE"
value_observed = 0.82

[[record]]
chain_sequence = "DEDHEHLKRMADRSWKIFLTGDEDTFVHLADPNVKQHINIDGRNHQNHGREVILRWQEEFQNYFKNMKIELHDMKFYDGRVHIDATLHWNGVERKIHLIFVIVDGRIKEERFHVR"
value_observed = 0.707

[[record]]
chain_sequence = "DDEDEHWETLARHFVDNYLTGDWKRLWEMLDPNARLNVNGKEYHGREVIIRVLRKELEDLGVDVVDVEDIRVYGNKVDFHMTVRVGDKERRLEIDVHIVDGRIRKIIIRID"
value_observed = 2.2

[[record]]
chain_sequence = "HEDHKFLNEFVELWLRAEHTGDEDWLEENADPNTRVEVNGKSIHGMEYELRHLHHVLDRFKNMTFDTTVTRIDQQGDKAKVKVEIRLDIDGKDIRLEVDLIITKINGRWIVREIRYK"
value_observed = 1.22

[[record]]
chain_sequence = "DEDEEESRRFTEILLHKFWTGDEDWYRKMADPNDKSVVGDKLFHGRDEVDRAIHEFLRHLGVDHFELHRLEVDHYNGKAEVRSDMILRVNGQERRMILKVHNTKFNGRWTLESVRIESR"
value_observed = 0.715

[[record]]
chain_sequence = "DEDEESSKLAIEFLLRALITGDEKTMSELLDPNARLVVNGVEIVGMHVIVRHFIEMRLERIHVRIRSWTVFDGRLLNDTELHRHINVNGVEEDRSNRVELFVKKVDGKWKLEMIIIN"
value_observed = 2.63

[[record]]
chain_sequence = "DDLEEEAHKFLRIWLKNIITGDEDTLIELMDPRPRTIFNGVDLHGREDTSKRLSELRFNMRIDDIHVEVQGDKAIALSDVSYELIYNGRHVHLKSEIILTVRKFDGKWKAERLEIRIK"
value_observed = 1.67

[[record]]
chain_sequence = "SEEEEDARRMMEILIKTLKTGDWRTIRRLVDPNVRVDFNGVDDHGRENWLKHVLHIRFKRIYIRDVRVYDGRVHIHGEINIEFDGRSDHYEVEIHIDKVDGRWVITHILIV"
value_observed = 2.26

